target: UniProtKB P19020
Sequence (P19020 whole entry): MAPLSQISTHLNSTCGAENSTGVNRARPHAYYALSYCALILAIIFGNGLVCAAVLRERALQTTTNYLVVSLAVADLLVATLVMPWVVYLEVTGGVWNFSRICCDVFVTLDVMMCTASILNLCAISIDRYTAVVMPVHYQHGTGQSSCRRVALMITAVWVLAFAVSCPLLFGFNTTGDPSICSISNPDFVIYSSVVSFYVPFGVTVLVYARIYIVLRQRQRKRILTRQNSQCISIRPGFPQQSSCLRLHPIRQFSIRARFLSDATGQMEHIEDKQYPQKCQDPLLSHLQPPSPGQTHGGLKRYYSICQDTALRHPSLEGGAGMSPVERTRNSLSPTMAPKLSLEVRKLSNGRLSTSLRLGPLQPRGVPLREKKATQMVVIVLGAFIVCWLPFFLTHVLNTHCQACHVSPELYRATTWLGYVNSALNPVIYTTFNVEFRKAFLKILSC
Observed Property: Ki (nM)

# Compound, Quantitative Result
data = [
    ("Cc1nc2n(c(=O)c1CCN1CCC(c3noc4cc(F)ccc34)CC1)CCCC2O (stereo unspecified)", 13),
]

###

biological target: D(1A) dopamine receptor (Rattus norvegicus)
Sequence (P18901 whole entry): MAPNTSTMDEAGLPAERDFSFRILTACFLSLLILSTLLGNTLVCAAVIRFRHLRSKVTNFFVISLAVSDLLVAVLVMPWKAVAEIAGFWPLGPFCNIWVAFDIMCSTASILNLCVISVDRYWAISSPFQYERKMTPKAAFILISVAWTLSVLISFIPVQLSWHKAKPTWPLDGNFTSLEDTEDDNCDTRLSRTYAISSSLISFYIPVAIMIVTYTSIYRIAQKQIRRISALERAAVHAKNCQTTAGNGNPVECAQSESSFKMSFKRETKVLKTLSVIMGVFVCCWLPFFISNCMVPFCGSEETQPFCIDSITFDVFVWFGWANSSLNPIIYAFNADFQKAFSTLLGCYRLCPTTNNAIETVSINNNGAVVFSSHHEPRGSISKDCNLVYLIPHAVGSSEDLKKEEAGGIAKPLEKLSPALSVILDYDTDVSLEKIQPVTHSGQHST

# Molecule, Unit Annotation, Ki
records = [
    ("Cc1nc2n(c(=O)c1CCN1CCC(c3noc4cc(F)ccc34)CC1)CCCC2O (stereo unspecified) [9-OH-risperidone]", "nM", 510),
]
